// data source = ChEMBL document CHEMBL1135002

assayTarget: Vascular endothelial growth factor receptor (Homo sapiens, UniProt P17948+P35916+P35968)
conditionNotes: endothelial cell
Description: Inhibition of VEGF-stimulated mitogenesis in endothelial cells
attributeMeasured: IC50 (µM)
Answers are plain numbers, in µM.

These recorded examples may help you get a feel for the data.
• c1cncc(-c2cnn3cc(-c4ccc(OCCN5CCCCC5)cc4)cnc23)c1 = 0.029
• c1ccc(-c2cnn3cc(-c4ccc(OCCN5CCOCC5)cc4)cnc23)cc1 = 0.032
• c1cc(-c2cnn3cc(-c4ccc(OCCN5CCOCC5)cc4)cnc23)ccn1 = 0.031

Moving on to the next compound.
Exercise: Provide IC50, recorded with Vascular endothelial growth factor receptor (Homo sapiens, UniProt P17948+P35916+P35968), of COc1ccc(-c2cnc3c(-c4ccncc4)cnn3c2)cc1
Key: 0.15

---

protocolDetails: The pharmacokinetic parameter plasma clearance in vivo in rats
Type: ADME, organism-based
conditionNotes: rat, read-out: CI
attributeMeasured: clearance

Exercise: Look up and state reported clearance for c1cncc(-c2cnn3cc(-c4ccc(OCCN5CCCCC5)cc4)cnc23)c1
Key: 23 mL/min/kg

---

Can you tell me half-life for the items I'm about to list?
protocolDetails: The pharmacokinetic parameter half-life period in vivo in rats
Format: ADME, organism-based
conditionNotes: rat
Give bare numbers, in min.

Some solved cases for reference:
- c1cc(-c2cnn3cc(-c4ccc(OCCN5CCCCC5)cc4)cnc23)cs1: 306
- CN1CCN(CCCn2ccc(-c3cnc4c(-c5ccsc5)cnn4c3)cc2=O)CC1: 204

Continue with the compound presented below.
Exercise: Give the reported value of half-life for this record: c1cncc(-c2cnn3cc(-c4ccc(OCCN5CCCCC5)cc4)cnc23)c1
Key: 198

---

protocolDetails: The pharmacokinetic parameter volume of distribution in vivo in rats
Format: ADME, organism-based
conditionNotes: rat, read-out: Vdss
Give measured Vd for each item. Keep answers brief.
Answers are plain numbers, in L/kg.

• c1cc(-c2cnn3cc(-c4ccc(OCCN5CCCCC5)cc4)cnc23)cs1 [L-21649] = 16
• CN1CCN(CCCn2ccc(-c3cnc4c(-c5ccsc5)cnn4c3)cc2=O)CC1 = 7.9

Please turn your attention to the following entry.
Exercise: Look up Vd of c1cncc(-c2cnn3cc(-c4ccc(OCCN5CCCCC5)cc4)cnc23)c1 and report it.
Key: 6

---

protocolDetails: Partition coefficient (logP)
Format: physicochemical
conditionNotes: octanol/water
attributeMeasured: logP
Numbers only.

- CN1CCN(CCCn2ccc(-c3cnc4c(-c5ccccc5)cnn4c3)cc2=O)CC1: 2
- O=c1cc(-c2cnc3c(-c4ccccc4)cnn3c2)ccn1CCCN1CCCCC1: 2.4

# ---- query compound ----
Exercise: For CN1CCN(CCCn2ccc(-c3cnc4c(-c5ccsc5)cnn4c3)cc2=O)CC1 , write its logP.
Key: 1.6

---

assayTarget: Vascular endothelial growth factor receptor 2 (Homo sapiens, UniProt P35968)
Sequence (P35968 whole entry): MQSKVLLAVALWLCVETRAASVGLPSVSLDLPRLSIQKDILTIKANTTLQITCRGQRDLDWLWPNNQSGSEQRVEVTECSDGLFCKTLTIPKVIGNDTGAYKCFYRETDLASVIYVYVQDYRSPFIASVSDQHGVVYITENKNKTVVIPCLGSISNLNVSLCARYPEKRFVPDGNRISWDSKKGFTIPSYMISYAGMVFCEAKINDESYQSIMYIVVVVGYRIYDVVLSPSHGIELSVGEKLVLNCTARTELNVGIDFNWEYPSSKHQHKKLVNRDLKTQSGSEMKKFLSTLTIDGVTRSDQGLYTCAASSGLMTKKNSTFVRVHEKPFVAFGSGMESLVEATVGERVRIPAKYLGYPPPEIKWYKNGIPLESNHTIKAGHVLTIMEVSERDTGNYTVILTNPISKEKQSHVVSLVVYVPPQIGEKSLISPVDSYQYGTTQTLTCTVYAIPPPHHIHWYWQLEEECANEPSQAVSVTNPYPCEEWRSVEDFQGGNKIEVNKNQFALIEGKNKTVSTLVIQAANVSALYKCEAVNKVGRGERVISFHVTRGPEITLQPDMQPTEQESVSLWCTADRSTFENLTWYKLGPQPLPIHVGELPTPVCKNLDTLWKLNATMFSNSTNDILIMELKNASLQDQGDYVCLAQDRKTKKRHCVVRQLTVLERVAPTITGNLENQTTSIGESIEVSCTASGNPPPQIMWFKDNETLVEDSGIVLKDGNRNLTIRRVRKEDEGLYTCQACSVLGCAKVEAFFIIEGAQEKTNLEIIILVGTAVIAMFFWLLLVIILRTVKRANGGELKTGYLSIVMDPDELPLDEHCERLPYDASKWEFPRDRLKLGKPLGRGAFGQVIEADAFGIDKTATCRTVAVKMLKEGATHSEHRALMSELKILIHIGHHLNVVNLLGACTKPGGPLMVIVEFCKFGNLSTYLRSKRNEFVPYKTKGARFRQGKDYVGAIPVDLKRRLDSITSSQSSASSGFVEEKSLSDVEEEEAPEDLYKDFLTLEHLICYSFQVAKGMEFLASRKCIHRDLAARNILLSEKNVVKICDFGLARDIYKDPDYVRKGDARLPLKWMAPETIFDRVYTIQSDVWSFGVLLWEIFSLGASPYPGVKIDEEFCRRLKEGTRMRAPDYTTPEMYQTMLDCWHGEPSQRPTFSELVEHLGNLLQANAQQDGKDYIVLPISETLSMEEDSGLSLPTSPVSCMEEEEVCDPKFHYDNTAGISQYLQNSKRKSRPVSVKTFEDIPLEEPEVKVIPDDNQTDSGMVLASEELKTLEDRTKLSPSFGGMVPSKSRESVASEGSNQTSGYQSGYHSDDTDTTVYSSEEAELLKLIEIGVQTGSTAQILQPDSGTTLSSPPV
attributeMeasured: pIC50
Answers are plain numbers, as −log10 of the molar value.

Exercise: Look up and report pIC50, with Vascular endothelial growth factor receptor 2 (Homo sapiens, UniProt P35968) as system, for c1cncc(-c2cnn3cc(-c4ccc(OCCN5CCCCC5)cc4)cnc23)c1
Key: 7.70
